Please provide measured melting point for the entries that follow.
Where a name gives a salt, the structure may show the parent alone.

Need melting point, item CCN1CCN(c2nc(-c3ccc(CCO)c(F)c3)cc3ccccc23)CC1 (as salt: hydrochloride) [Example 385, Dihydrochloride] 213 to 215 °C (dec.)

Check CCCC(=O)Nc1ccc(-c2cc3ccccc3c(N3CCN(CC)CC3)n2)cc1 (as salt: hydrochloride) too. 170 to 172 °C

Check COc1ccc(-c2cc3ccccc3c(N3CCN(CCC#N)CC3)n2)cc1 (as salt: hydrochloride) too. 164 to 166 °C

Check CC(C)(O)COc1ccc(-c2cc3sccc3c(N3CCN(CCc4ccccc4)CC3)n2)cc1 (as salt: hydrochloride) too. 140 to 142 °C

Check CCN1CCN(c2nc(-c3ccc(NC(C)=O)cc3)cc3ccccc23)CC1 (as salt: hydrochloride) too. 180 to 182 °C

Check CCN1CCN(c2nc(-c3ccc(C4CCCO4)cc3)cc3ccccc23)CC1 (stereo not drawn) (as salt: hydrochloride) [Example 396, Dihydrochloride] too. 129 to 130 °C

Check CCN1CCN(c2nc(-c3ccc(N4CCOCC4)cc3)cc3ccccc23)CC1 (as salt: hydrochloride) [Example 160, dihydrochloride] too. 242 to 245 °C (dec.)

Check CCN1CCN(c2nc(-c3ccc(OCCOC)c(F)c3)cc3ccccc23)CC1 (as salt: hydrochloride) [Example 367, dihydrochloride] too. 112.5 to 114 °C

Check CCN1CCN(c2nc(-c3ccc(S(=O)(=O)CCCF)cc3)cc3ccccc23)CC1 (as salt: hydrochloride) [Example 355, dihydrochloride] too. 224 to 225 °C (dec.)

Check CCN1CCN(c2nc(C#CCN3CCOCC3)cc3ccccc23)CC1 (as salt: oxalate) too. 231 to 233 °C

Check CC(C)(O)COc1ccc(-c2cc3sccc3c(N3CCN(CCO)CC3)n2)cc1 (as salt: hydrochloride) too. 139 to 142 °C

Check CCN1CCN(c2nc(-c3ccc([C@@H]4C[C@H](O)CCO4)cc3)cc3ccsc23)CC1 (relative stereo) (as salt: hydrochloride) [Example 454, dihydrochloride] too. 157 to 159 °C

Check COc1ccc(-c2cc3ccccc3c(N3CCN(CC(N)=O)CC3)n2)cc1 (as salt: hydrochloride) [Example 314, dihydrochloride] too. 153 to 155 °C

Check CCN1CCN(c2nc(C3CCCc4ccc(OC)cc43)cc3ccccc23)CC1 (stereo not drawn) (as salt: oxalate) too. 110 to 112 °C

Check CCN1CCN(c2nc(Sc3ccccn3)cc3ccccc23)CC1 (as salt: oxalate) too. 178 to 181 °C (dec.)

Check CCN1CCN(c2nc(/C=C/c3ccc(OCCO)cc3)cc3ccsc23)CC1 (as salt: hydrochloride) too. 143 to 145 °C

Check CN1CCN(c2nc(-c3ccc(OCC(C)(C)O)cc3)cc3sccc23)CC1 (as salt: hydrochloride) too. 135 to 138 °C

Check CCN1CCN(c2nc(-c3ccc(OCCO)cn3)cc3ccccc23)CC1 (as salt: hydrochloride) too. 110 to 115 °C

Check CCCS(=O)(=O)NCc1ccc(-c2cc3ccccc3c(N3CCN(CC)CC3)n2)cc1Cl (as salt: hydrochloride) too. 253 to 255 °C (dec.)

Check CCN1CCN(c2nc(-c3ccc(OC)cc3)cc3occc23)CC1 (as salt: oxalate) too. 170 to 172 °C (dec.)

Check CCN1CCN(c2nc(-c3ccc(OC)cc3)c(Cl)c3ccccc23)CC1 (as salt: hydrochloride) too. 200.5 to 201.5 °C (dec.)

Check CCN1CCN(c2nc(-c3ccc(C(C)(C)CCO)cc3)cc3ccsc23)CC1 (as salt: hydrochloride) [Example 443, dihydrochloride] too. 125.5 to 127.5 °C

Check CC(C)(O)COc1ccc(-c2cc3sccc3c(N3CCN(CCF)CC3)n2)cc1 (as salt: hydrochloride) too. 135 to 137 °C

Check CCN1CCN(c2nc(-c3ccc(C#N)cc3)cc3ccccc23)CC1 (as salt: hydrochloride) too. 241 °C (dec.)

Check CCCNC(=O)c1ccc(-c2cc3ccccc3c(N3CCN(CC)CC3)n2)cc1 (as salt: hydrochloride) too. 149 to 150 °C

Check OCCOc1ccc(-c2cc3sccc3c(N3CCN(CCF)CC3)n2)cc1 (as salt: hydrochloride) too. 138 to 140 °C

Check CCN1CCN(c2nc(-c3ccc(OC)cc3)cc3cc(OC)ccc23)CC1 (as salt: hydrochloride) too. 218 to 220 °C

* * *

# Assay Target: serotonin 1A receptor (Rattus norvegicus, UniProt P19327)
# Construct: To the receptor fraction of the hippocampus were added a test compound and 0.5 nM of [^3H]; 8-hydroxy-dipropylaminotetralin; from tissue; host or cells: rat hippocampus membrane fraction
# Sequence (P19327 whole entry): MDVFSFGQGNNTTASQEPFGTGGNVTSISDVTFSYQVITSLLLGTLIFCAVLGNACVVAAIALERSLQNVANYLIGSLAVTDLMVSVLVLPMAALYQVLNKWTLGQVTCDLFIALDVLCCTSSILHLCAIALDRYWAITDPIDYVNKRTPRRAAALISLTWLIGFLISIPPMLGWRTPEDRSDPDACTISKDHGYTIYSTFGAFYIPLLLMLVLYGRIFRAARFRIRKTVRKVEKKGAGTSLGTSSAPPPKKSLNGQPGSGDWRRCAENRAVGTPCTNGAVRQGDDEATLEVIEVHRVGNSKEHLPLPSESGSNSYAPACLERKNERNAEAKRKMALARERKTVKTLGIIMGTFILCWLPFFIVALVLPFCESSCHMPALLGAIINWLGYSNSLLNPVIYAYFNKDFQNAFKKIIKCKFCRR
# Method: Binding test on [3H] 8-hydroxy-dipropylaminotetralin, hippocampus receptor fraction
# Design: species or system SD rats
# Condition Label: rat hippocampus receptor fraction, 0.5 nM [3H] 8-OH-DPAT, room temperature 30 min; read-out: 5HT1
Structures can show the parent of a compound that is named as a salt.
Parameter: pKi
pKi is defined as minus the log10 of a concentration measured in mol/L.

Need pKi, item CCN1CCN(c2nc(/C=C/c3ccc(N4CCOCC4)nn3)cc3ccccc23)CC1 [Example 214, Oxalate] 7.81

Check CCN1CCN(c2nc(-c3ccc(S(C)(=O)=O)nc3)cc3ccccc23)CC1 [Example 129, Hydrochloride] too. 7.67

Check CCN1CCN(c2nc(-c3cc(OCCO)cc(OCCO)c3)cc3ccccc23)CC1 [Example 38, hydrochloride] too. 7.68

Check CCN1CCN(c2nc(/C=C/c3ccccn3)cc3ccccc23)CC1 [Example 209, Trihydrochloride] too. 8.48

Check CCN1CCN(c2nc(-c3ccc(N)cc3)cc3ccccc23)CC1 [Example 65, Hydrochloride] too. 7.22

Check CCN1CCN(c2nc(-c3ccc(OCCO)c(C(C)C)c3)cc3ccccc23)CC1 [Example 41, hydrochloride] too. 7.40

Check CCN1CCN(c2nc(CCc3cccc(OCCO)c3)cc3ccccc23)CC1 [Example 108] too. 6.81

Check CCN1CCN(c2nc(-c3ccc(CCCOC)cn3)cc3ccccc23)CC1 [Example 141, Oxalate] too. 8.54

* * *

# Assay Target: serotonin 1A receptor (Rattus norvegicus, UniProt P19327)
# Construct: To the receptor fraction of the hippocampus were added a test compound and 0.5 nM of [^3H]; 8-hydroxy-dipropylaminotetralin; from tissue; host or cells: rat hippocampus membrane fraction
# Method: Binding test on [3H] 8-hydroxy-dipropylaminotetralin, hippocampus receptor fraction
# Parameters: species or system SD rats
# Condition Label: rat hippocampus receptor fraction, 0.5 nM [3H] 8-OH-DPAT, room temperature 30 min; read-out: 5HT1
Counter-ions that a name gives are not always drawn.
Please provide measured Ki for the entries that follow.
Answer by giving the amount and then stating its unit.

What value of Ki on serotonin 1A receptor (Rattus norvegicus, UniProt P19327) does CCN1CCN(c2nc(-c3ccc(OCCOC)nc3)cc3ccccc23)CC1 [Example 126] have? 26.4 nM

Check CCN1CCN(c2nc(C#Cc3ccc(OC)cc3OC)cc3ccccc23)CC1 [Example 185, Dihydrochloride] too. 21.2 nM

Check CCN1CCN(c2nc(-c3ccc(OCC#N)cc3)cc3ccccc23)CC1 [Example 51, Hydrochloride] too. 103 nM

Check CCCC(=O)Nc1ccc(-c2cc3ccccc3c(N3CCN(CC)CC3)n2)cc1 [Example 70, Hydrochloride] too. 23.3 nM

Check CCN1CCN(c2nc(-c3ccc(CC(C)=O)cc3)cc3ccccc23)CC1 [Example 375, dihydrochloride] too. 30.5 nM

Check CCN1CCN(c2nc(-c3ccc(C(C)O)cc3)cc3ccccc23)CC1 (stereo not shown) [Example 348, dihydrochloride] too. 11 nM

Check CCN1CCN(c2nc(-c3cccc(CCCO)c3)cc3ccccc23)CC1 [Example 418] too. 54.5 nM

Check CCN1CCN(c2nc(-c3ccc(OCCCC#N)cc3)cc3ccccc23)CC1 [Example 53, Hydrochloride] too. 61.2 nM

Check CCN1CCN(c2nc(-c3ccc(CCCCO)cc3)cc3ccccc23)CC1 [Example 23, hydrochloride] too. 16.8 nM

Check CCN1CCN(c2nc(-c3ccc(N4CCC(CO)CC4)nc3)cc3ccccc23)CC1 [Example 154, trihydrochloride] too. 1.6 nM

Check CCN1CCN(c2nc(-c3ccc(C(O)C4CCCC4)cc3)cc3ccsc23)CC1 (stereo not shown) [Example 458, dihydrochloride] too. 75.4 nM

Check CCN1CCN(c2nc(-c3ccc(C(=O)NC4CCCC4)cc3)cc3ccsc23)CC1 [Example 453, dihydrochloride] too. 22.2 nM

Check CCC(F)c1ccc(-c2cc3ccccc3c(N3CCN(CC)CC3)n2)cc1 (stereo not shown) [Example 5, Hydrochloride] too. 21 nM

Check CCN1CCN(c2nc(-c3ccc(S(=O)(=O)NCCO)cc3)cc3ccccc23)CC1 [Example 347, dihydrochloride] too. 8 nM

Check CCN1CCN(c2nc(Sc3ccccn3)cc3ccccc23)CC1 [Example 378, Oxalate] too. 42.7 nM

Check CCN1CCN(c2nc(-c3ccc(CCCO)cc3)cc3sccc23)CC1 [Example 465, dihydrochloride] too. 6.28 nM
